Origin of the recorded values: patent US11090304B2

# Lookup of reported Coupled exchange IC50 (5 min) keyed by entry
- System: GDP-bound KRAS protein (aa 1-169), containing both G12C and C118A amino acid substitutions (Homo sapiens, UniProt P01116, C118A/G12C)
- Sequence (P01116 1-169 isoform P01116-2 G12C/C118A): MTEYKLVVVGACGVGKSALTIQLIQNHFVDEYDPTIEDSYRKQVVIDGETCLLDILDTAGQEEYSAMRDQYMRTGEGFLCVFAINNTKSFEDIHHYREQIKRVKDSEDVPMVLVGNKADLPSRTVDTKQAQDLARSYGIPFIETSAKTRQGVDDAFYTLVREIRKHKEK
- Method description: Coupled nucleotide exchange assay (SOS-mediated, AlphaScreen)
- Format: biochemical
- Experimental parameters: 5 min compound pre-incubation

C=CC(=O)N1CCN(c2nc(=O)n(-c3c(CC)ncnc3CC)c3nc(-c4c(O)cccc4F)c(F)cc23)[C@@H](C)C1 | 0.732 | nda μM
C=CC(=O)N1CCN(c2nc(=O)n(-c3c(CC)cccc3CC)c3nc(-c4ccccc4O)c(Cl)cc23)[C@@H](C)C1 | 0.845 µM
C=CC(=O)N1C[C@H](C)N(c2nc(=O)n(-c3c(C)ccnc3C(C)C)c3nc(-c4c(N)cccc4F)c(F)cc23)[C@@H](C)C1 (atropisomer, axis not shown; (M)) | 0.021 | nda μM
C=CC(=O)N1CCN(c2nc(=O)n(-c3scnc3CC)c3nc(-c4ccccc4F)c(Cl)cc23)[C@@H](C)C1 | 0.35 | nda μM
C=CC(=O)N1CCN(c2nc(=O)n(-c3c(C)cccc3C)c3nc(-c4c(O)cccc4F)c(Cl)cc23)CC1 | 0.653 µM

INPUT: Query (compound): C=CC(=O)N1CCN(c2nc(=O)n(-c3c(C)ccnc3C(C)C)c3nc(-c4c(O)cccc4Cl)c(F)cc23)[C@@H](C)C1 (single isomer, unassigned) [Example 58-9-2] ; field requested: Coupled exchange IC50 (5 min)
OUTPUT: 0.349 | nda μM

INPUT: Query (compound): `C=CC(=O)N1CCN(c2nc(=O)n(CC(F)(F)F)c3nc(-c4c(O)cccc4F)c(Cl)cc23)[C@@H](C)C1` ; field requested: Coupled exchange IC50 (5 min)
OUTPUT: 1.75 | nda μM
